Target: full-length beta-Catenin (Uniprot ID P35222) (Homo sapiens, UniProt P35222)
Construct: 10 nM full-length beta-Catenin (Uniprot ID P35222)
Sequence (P35222 whole entry): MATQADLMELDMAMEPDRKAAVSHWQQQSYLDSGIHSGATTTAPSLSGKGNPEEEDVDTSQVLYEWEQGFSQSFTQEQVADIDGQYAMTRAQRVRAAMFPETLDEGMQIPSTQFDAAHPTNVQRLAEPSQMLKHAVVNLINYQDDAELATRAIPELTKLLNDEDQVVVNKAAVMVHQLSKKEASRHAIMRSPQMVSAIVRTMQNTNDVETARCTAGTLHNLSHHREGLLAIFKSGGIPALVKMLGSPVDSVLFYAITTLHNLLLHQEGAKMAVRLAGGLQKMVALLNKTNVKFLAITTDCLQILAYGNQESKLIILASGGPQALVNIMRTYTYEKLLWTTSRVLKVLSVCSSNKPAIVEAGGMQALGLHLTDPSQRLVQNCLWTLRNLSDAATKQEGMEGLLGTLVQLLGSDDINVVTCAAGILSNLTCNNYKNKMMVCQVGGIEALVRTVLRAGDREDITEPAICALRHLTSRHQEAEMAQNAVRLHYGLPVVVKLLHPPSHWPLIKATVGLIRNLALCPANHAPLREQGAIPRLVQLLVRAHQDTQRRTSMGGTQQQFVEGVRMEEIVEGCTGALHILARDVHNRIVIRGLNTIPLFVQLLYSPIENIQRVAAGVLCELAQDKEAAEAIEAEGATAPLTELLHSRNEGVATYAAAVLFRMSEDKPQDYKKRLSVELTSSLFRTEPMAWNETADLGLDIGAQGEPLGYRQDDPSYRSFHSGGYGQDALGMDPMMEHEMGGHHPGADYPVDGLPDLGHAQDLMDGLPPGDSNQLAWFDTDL
Experiment: Fluorescence polarization IC50 (beta-catenin / 5FAM-TCF4 10-53 competition)
Type: binding
Conditions: fluorescence polarization; read-out: beta-Catenin FP IC50
readout_label: IC50 (nM)
Write it as a number; the unit nM goes unstated.

Form field IC50, entry CC(=O)N1CCC[C@]12CC=CCCCC1(CCCC=CCCCOC(=O)N3CC[C@@](C(=O)N[C@@H](Cc4ccsc4)C(=O)N[C@@H](Cc4csc5ccccc45)C(=O)N[C@@H](CO)C(N)=O)(C3)NC(=O)[C@H](Cc3ccccc3)NC(=O)[C@H](Cc3ccccc3)NC(=O)[C@H](C)NC(=O)[C@H](C)NC(=O)[C@H](Cc3ccccc3C(=O)O)NC(=O)[C@H](CC(=O)O)NC1=O)NC(=O)[C@H](CC(C)(C)C)NC(=O)[C@H](CC(=O)O)NC2=O (single isomer, unassigned) [I-1664] : 22

Note to self: IC50 recorded for CC(=O)N1CCC[C@]12CC=CCCCC1(CCCC=CCCCOC(=O)N3CC[C@@](C(=O)N[C@@H](Cc4ccccc4Cl)C(=O)N[C@@H](Cc4csc5ccccc45)C(=O)N[C@@H](CO)C(=O)N[C@@H](C)CO)(C3)NC(=O)[C@H](CC(C)C)NC(=O)[C@H](Cc3ccccc3)NC(=O)[C@H](C)NC(=O)[C@H](C)NC(=O)[C@H](Cc3cccc(C(=O)O)c3)NC(=O)[C@H](CC(=O)O)NC1=O)NC(=O)[C@H](CC(C)(C)C)NC(=O)[C@H](CC(=O)O)NC2=O (stereo partly drawn) was 23

The recorded IC50 for entry CC(=O)N1CCC[C@]12CC=CCCCC1(CCCC=CCCCOC(=O)N3CC[C@@](C(=O)N[C@@H](Cc4ccccc4)C(=O)N[C@@H](Cc4csc5ccccc45)C(=O)N[C@@H](CC(=O)N4CCOCC4)C(N)=O)(C3)NC(=O)[C@H](CC(C)C)NC(=O)[C@H](Cc3ccccc3)NC(=O)[C@H](C)NC(=O)[C@H](CCC(N)=O)NC(=O)[C@H](CCC(N)=O)NC(=O)[C@H](CC(=O)O)NC1=O)NC(=O)[C@H](CC1CCCCC1)NC(=O)[C@H](CC(N)=O)NC2=O (stereo partly drawn) equals 210

Given item CC(=O)N1CCC[C@]12CC=CCCCC1(CCCC=CCCCOC(=O)N3CC[C@@](C(=O)N[C@@H](Cc4ccsc4)C(=O)N[C@H](C(=O)N[C@@H](CCC(N)=O)C(N)=O)[C@@H](C)c4ccc5ccccc5c4)(C3)NC(=O)[C@H](CC(C)C)NC(=O)[C@H](Cc3ccccc3)NC(=O)[C@H](C)NC(=O)[C@H](C)NC(=O)[C@H](Cc3cccc(C(=O)O)c3)NC(=O)[C@H](CC(=O)O)NC1=O)NC(=O)[C@H](CC(C)(C)C)NC(=O)[C@H](CC(=O)O)NC2=O (stereo partly drawn) , the value recorded as its IC50 is 22

In plain terms, CC(=O)N1CCC[C@]12CC=CCCCC1(CCCC=CCCCOC(=O)N3CC[C@@](C(=O)N[C@@H](Cc4ccsc4)C(=O)N[C@@H](Cc4csc5ccccc45)C(=O)N[C@@H](CCC(N)=O)C(N)=O)(C3)NC(=O)[C@H](CCO)NC(=O)[C@H](Cc3ccccc3)NC(=O)[C@H](C)NC(=O)[C@H](C)NC(=O)[C@H](Cc3c[nH]c4ccccc34)NC(=O)[C@H](CC(=O)O)NC1=O)NC(=O)[C@H](CC(C)(C)C)NC(=O)[C@H](CC(=O)O)NC2=O (stereo partly drawn) has a documented IC50 of 183

Kindly note the recorded IC50 for CC(=O)N1CCC[C@]12CC=CCCCC1(CCCC=CCCCCCC[C@@](C)(C(=O)N[C@@H](Cc3ccccc3)C(=O)N[C@@H](Cc3csc4ccccc34)C(=O)N[C@@H](Cc3c[nH]cn3)C(N)=O)NC(=O)[C@H](CCC(N)=O)NC(=O)[C@H](Cc3ccccc3)NC(=O)[C@H](C)NC(=O)[C@H](C)NC(=O)[C@H](CCC(=O)O)NC(=O)[C@H](CC(=O)O)NC1=O)NC(=O)[C@H](CC(C)C)NC(=O)[C@H](CC(=O)O)NC2=O (stereo partly drawn) , which is 25

Record CC(=O)N1CCC[C@]12CC=CCCCC1(CCCC=CCCCOC(=O)N3CCC(C(=O)N[C@@H](Cc4ccsc4)C(=O)N[C@@H](Cc4csc5ccccc45)C(=O)N[C@@H](CCC(N)=O)C(N)=O)(CC3)NC(=O)[C@H](CC(C)C)NC(=O)[C@H](Cc3ccccc3)NC(=O)[C@H](C)NC(=O)[C@H](C)NC(=O)[C@H](Cc3cccc(C(=O)O)c3)NC(=O)[C@H](CC(=O)O)NC1=O)NC(=O)[C@H](CC(C)(C)C)NC(=O)[C@H](CC(=O)O)NC2=O (stereo partly drawn) [I-2588] . Reported IC50: 26

The compound listed as CC(=O)N1CC2CC1C(=O)N[C@@H](CC(=O)O)C(=O)N[C@@H](CC(C)(C)C)C(=O)NC1(CCCC=CCCCOC(=O)N3CC[C@@](C(=O)N[C@@H](Cc4ccsc4)C(=O)N[C@@H](Cc4csc5ccccc45)C(=O)N[C@@H](CCC(N)=O)C(N)=O)(C3)NC(=O)[C@H](CC(C)C)NC(=O)[C@H](Cc3ccccc3)NC(=O)[C@H](C)NC(=O)[C@H](C)NC(=O)[C@H](CN(CC(=O)O)CC(F)(F)F)NC(=O)[C@H](CC(=O)O)NC1=O)CCCC=CCCC(=O)O2 (stereo partly drawn) has a reported IC50 of 45

Noted for CC(=O)N1CCC[C@]12CC=CCCCC1(CCCC=CCCCOC(=O)N3CC[C@@](C(=O)N[C@@H](Cc4ccsc4)C(=O)N[C@@H](Cc4ccc(Cl)c(Cl)c4)C(=O)N[C@@H](C)C(N)=O)(C3)NC(=O)[C@H](C(C)C)NC(=O)[C@H](Cc3ccccc3)NC(=O)[C@H](C)NC(=O)[C@H](CCC(N)=O)NC(=O)[C@H](Cc3cccc(C(=O)O)c3)NC(=O)[C@H](CC(=O)O)NC1=O)NC(=O)[C@H](CC(C)(C)C)NC(=O)[C@H](CC(=O)O)NC2=O (stereo partly drawn) : its IC50 reads 6

---

Molecular target: beta-catenin/TCF4 engagement (Homo sapiens)
Construct: expressed in transfected cells; host or cells: HEK293
Sequence (P35222 whole entry): as above
Assay: Nano-BRET target engagement assay (B-cat-Halo & TCF4-Luc in HEK293 cells)
Assay type: cell-based
Conditions: absolute IC50; read-out: NanoBRET Abs IC50
Record form. Attribute: pIC50. Fill in for each entry.
Please note pIC50 is a logarithmic value: minus log10 of concentration in mol/L. Answer with that number alone.

# compound CC(=O)N1CCC[C@]12CC=CCCCC1(CCCC=CCCCCCC[C@@](C)(C(=O)N[C@@H](Cc3ccccc3)C(=O)N[C@@H](Cc3csc4ccccc34)C(=O)N[C@@H](CCC(N)=O)C(N)=O)NC(=O)[C@H](CCC(N)=O)NC(=O)[C@H](Cc3ccccc3)NC(=O)[C@H](C)NC(=O)[C@H](C)NC(=O)[C@H](CCC(=O)O)NC(=O)[C@H](CC(=O)O)NC1=O)NC(=O)[C@H](Cc1ccccc1)NC(=O)[C@H](CC(=O)O)NC2=O (stereo partly drawn) [I-1549] ; its pIC50 = 4.94

Entry under test: CC(=O)N1CCC[C@]12CC=CCCCC1(CCCC=CCCCOC(=O)N3CC[C@@](C(=O)N[C@@H](Cc4ccsc4)C(=O)N[C@@H](Cc4ccc(Cl)cc4)C(=O)N[C@@H](C)C(N)=O)(C3)NC(=O)[C@H](C(C)C)NC(=O)[C@H](Cc3ccccc3)NC(=O)[C@H](C)NC(=O)[C@H](CCC(N)=O)NC(=O)[C@H](Cc3cccc(C(=O)O)c3)NC(=O)[C@H](CC(=O)O)NC1=O)NC(=O)[C@H](CC(C)(C)C)NC(=O)[C@H](CC(=O)O)NC2=O (stereo partly drawn) [I-2221] . Its pIC50 was 5.30

Lab note: measured pIC50 of CC(=O)N1CCC[C@]12CC=CCCCC1(CCCC=CCCCOC(=O)N3CC[C@@](C(=O)N[C@@H](Cc4ccsc4)C(=O)N[C@@H](Cc4csc5ccccc45)C(=O)N[C@@H](CC(C)C)C(N)=O)(C3)NC(=O)[C@H](CC(C)C)NC(=O)[C@H](Cc3ccccc3)NC(=O)[C@H](C)NC(=O)[C@H](C)NC(=O)[C@H](CN(CC(=O)O)CC(F)(F)F)NC(=O)[C@H](CC(=O)O)NC1=O)NC(=O)[C@H](CC(C)(C)C)NC(=O)[C@H](CC(=O)O)NC2=O (stereo partly drawn) [I-1748] was 4.69

In plain terms, CC(=O)N1CCC[C@]12CC=CCCCC1(CCCC=CCCCOC(=O)N3CC[C@@](C(=O)N[C@@H](Cc4ccsc4)C(=O)N[C@@H](Cc4csc5ccccc45)C(=O)N[C@@H](CCC(N)=O)C(N)=O)(C3)NC(=O)[C@H](CC(C)C)NC(=O)[C@H](Cc3ccccc3)NC(=O)C(C)(C)NC(=O)[C@H](C)NC(=O)[C@H](CC(=O)O)NC(=O)[C@H](CC(=O)O)NC1=O)NC(=O)[C@H](CC(C)(C)C)NC(=O)[C@H](CC(=O)O)NC2=O (stereo partly drawn) [I-1178] has a documented pIC50 of 4.54
